Consider the following IC50 values measured on human AKT1 (Homo sapiens (Human)).
Sequence (P31749 whole entry): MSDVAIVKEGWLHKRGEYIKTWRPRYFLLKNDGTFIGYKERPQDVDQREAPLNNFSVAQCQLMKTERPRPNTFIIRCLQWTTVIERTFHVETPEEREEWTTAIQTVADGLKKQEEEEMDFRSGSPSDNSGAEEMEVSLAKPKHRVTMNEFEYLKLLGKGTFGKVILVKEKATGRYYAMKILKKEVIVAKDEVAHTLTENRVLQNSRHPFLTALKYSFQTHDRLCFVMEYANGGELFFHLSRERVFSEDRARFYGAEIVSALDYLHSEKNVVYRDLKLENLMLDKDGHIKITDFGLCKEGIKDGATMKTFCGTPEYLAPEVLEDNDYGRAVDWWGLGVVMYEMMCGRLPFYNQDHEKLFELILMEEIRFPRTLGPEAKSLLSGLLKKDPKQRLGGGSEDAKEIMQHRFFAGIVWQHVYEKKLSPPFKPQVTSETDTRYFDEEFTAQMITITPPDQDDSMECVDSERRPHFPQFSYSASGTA

[
  {
    "compound": "Cc1ccc2c(n1)-c1nc(-c3ccc(C4(N)CC(C)(O)C4)cc3)c(-c3ccccc3)n1CO2 (stereo not shown) [Example 50]",
    "IC50, nM": 11
  },
  {
    "compound": "N[C@]1(c2ccc(-c3nc4n(c3-c3ccccc3)COc3ccncc3-4)cc2)C[C@](O)(C2CC2)C1 [Example 31]",
    "IC50, nM": 4.2
  },
  {
    "compound": "CCC1(O)CC(N)(c2ccc(-c3nc4n(c3-c3ccccc3)COc3nccnc3-4)cc2)C1 (stereo not shown) [Example 43]",
    "IC50, nM": 8
  },
  {
    "compound": "C[C@]1(O)C[C@@](N)(c2ccc(-c3nc4n(c3-c3ccccc3)COc3cc(F)ccc3-4)cc2)C1 [Example 9]",
    "IC50, nM": 8.5
  }
]

---

system: AKT Ser473 phosphorylation; test: Phosphorylated AKT (Ser473) inhibitory activity in cultured cell A2780 (Meso Scale Discovery assay); assay type: cell-based; settings: A2780 cells, 3 hours treatment; average±standard deviation of three independent runs
Strictly below 30 nM in IC50: true. Otherwise: false.

[
  {
    "line_notation": "N[C@]1(c2ccc(-c3nc4n(c3-c3ccccc3)COc3ncccc3-4)cc2)C[C@](O)(C2CC2)C1",
    "class": "true"
  },
  {
    "line_notation": "CC[C@]1(O)C[C@@](N)(c2ccc(-c3nc4n(c3-c3ccccc3)COc3cccnc3-4)cc2)C1",
    "class": "false"
  },
  {
    "line_notation": "COc1ccc2c(c1)OCn1c-2nc(-c2ccc([C@]3(N)C[C@@](O)(C4CC4)C3)cc2)c1-c1ccccc1",
    "class": "false"
  },
  {
    "line_notation": "C[C@]1(O)C[C@@](N)(c2ccc(-c3nc4n(c3-c3ccccc3)COc3ccc(CO)cc3-4)cc2)C1",
    "class": "false"
  }
]

---

pIC50 listing for selected molecules.
system: S6 ribosomal protein (S6RP) Ser240/Ser244 phosphorylation; assay: Phosphorylated S6RP (Ser240/Ser244) inhibitory activity in cultured cell A2780 (Meso Scale Discovery assay); assay type: cell-based; details: A2780 cells, 3 hours treatment; average±standard deviation of three independent runs
pIC50: −log10 of the molar value.
readout_label: pIC50

[
  {
    "molecule": "CCONC(=O)c1ccc2c(c1)OCn1c-2nc(-c2ccc([C@]3(N)C[C@](C)(O)C3)cc2)c1-c1ccccc1",
    "experimental_system": "S6 ribosomal protein (S6RP) Ser240/Ser244 phosphorylation",
    "observed_measurement": 7.38
  },
  {
    "molecule": "C[C@]1(O)C[C@@](N)(c2ccc(-c3nc4n(c3-c3ccccc3)COc3cnccc3-4)cc2)C1",
    "experimental_system": "S6 ribosomal protein (S6RP) Ser240/Ser244 phosphorylation",
    "observed_measurement": 7.44
  },
  {
    "molecule": "COc1ccc2c(c1)OCn1c-2nc(-c2ccc([C@]3(N)C[C@@](O)(C4CC4)C3)cc2)c1-c1ccccc1",
    "experimental_system": "S6 ribosomal protein (S6RP) Ser240/Ser244 phosphorylation",
    "observed_measurement": 7.24
  },
  {
    "molecule": "COc1ccc2c(c1)-c1nc(-c3ccc([C@]4(N)C[C@@](O)(C5CC5)C4)cc3)c(-c3ccccc3)n1CO2",
    "experimental_system": "S6 ribosomal protein (S6RP) Ser240/Ser244 phosphorylation",
    "observed_measurement": 7.43
  },
  {
    "molecule": "CC[C@]1(O)C[C@@](N)(c2ccc(-c3nc4n(c3-c3ccccc3)COc3cccnc3-4)cc2)C1",
    "experimental_system": "S6 ribosomal protein (S6RP) Ser240/Ser244 phosphorylation",
    "observed_measurement": 6.76
  },
  {
    "molecule": "NC1(c2ccc(-c3nc4n(c3-c3ccccc3)COc3nccnc3-4)cc2)CC(O)(C2CC2)C1 (stereo not shown)",
    "experimental_system": "S6 ribosomal protein (S6RP) Ser240/Ser244 phosphorylation",
    "observed_measurement": 7.00
  },
  {
    "molecule": "N[C@]1(c2ccc(-c3nc4n(c3-c3ccccc3)COc3cccnc3-4)cc2)C[C@](O)(C2CC2)C1",
    "experimental_system": "S6 ribosomal protein (S6RP) Ser240/Ser244 phosphorylation",
    "observed_measurement": 7.00
  }
]

Hello, the source for this data is patent US8772283B2, in case you need it.
